# subject.of.test: Fibroblast growth factor 10 (Homo sapiens) (UniProt O15520)
# Sequence (O15520 whole entry, looked up): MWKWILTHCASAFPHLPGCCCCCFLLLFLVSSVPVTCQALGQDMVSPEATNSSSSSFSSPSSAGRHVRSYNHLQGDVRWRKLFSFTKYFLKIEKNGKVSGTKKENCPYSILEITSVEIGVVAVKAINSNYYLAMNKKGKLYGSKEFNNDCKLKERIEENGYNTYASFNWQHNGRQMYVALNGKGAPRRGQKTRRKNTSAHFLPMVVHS
# protocol: compounds binding fibroblast growth factor 10 – biochemical, small-molecule microarray, 635 nm fluorescence, primary screen (AID 1102)
# condition.info: FGF10 binding, fluorescence 635 nm, higher = more signal
reported.property: composite z-score
Please reply with the value in numeric form only.

Past entries and their recorded results:
compound: COC(=O)[C@@]1(Cc2ccccc2)[C@H]2c3cc(C(=O)N4CCCC4)n(Cc4ccccc4)c3C[C@H]2CN1C(=O)c1ccccc1
composite z-score: 1.12
//
compound: O=C(C=C(CC(O)c1cccc(Cl)c1)OCCF)OCCF (centres undefined)
composite z-score: -0.357
//
compound: COc1ccc(C#Cc2ccc3c(c2)[C@]2(C(=O)N3)[C@H](c3ccc(OCCO)cc3)N3[C@H](c4ccccc4)[C@H](c4ccccc4)OC(=O)[C@H]3[C@@H]2C(=O)N2CCN(c3ncccn3)CC2)cc1
composite z-score: 0.214

Please examine the following record next.
Exam item: Given the entry C=C[C@@H](O)[C@H]1CC(c2ccccc2)=NO1 , report its measured composite z-score.
Marked response: 0.0244
